Cited source for all entries: ChEMBL document CHEMBL2177069

- Test system: NCI-H226
- Assay Text: Cytotoxicity against human NCI-H226 cells
- Type: functional
Experimental Endpoint: GI50 (nM)
Give the value, in units of nM, as a plain number.

Below are worked cases with known answers.
Compound	Measurement Units	Recorded Result
CC1=C([Se]CC(OC(=O)[C@@H](CO)NC(=O)OC(C)(C)C)C(=O)NCCCCCC(=O)OCc2ccccc2)C(=O)c2ccccc2C1=O (some centres undefined)	nM	2240
CC1=C(SCCC(=O)OC(C[Se]C2=C(C)C(=O)c3ccccc3C2=O)C(=O)NCCCCCC(=O)OCc2ccccc2)C(=O)c2ccccc2C1=O (centres undefined)	nM	19500
CC1=C([Se]CC(OC(=O)[C@@H](CO)NC(=O)OC(C)(C)C)C(=O)NC(C)(C)C)C(=O)c2ccccc2C1=O (some centres undefined)	nM	1950

// lookup GI50 for CC1=C([Se]CC(OC(=O)[C@@H](CSSC(C)(C)C)NC(=O)C(C)(C)C)C(=O)NCCCCCC(=O)OCc2ccccc2)C(=O)c2ccccc2C1=O (some centres undefined)
2340
